Kd values by entry
# Target entity: IgG
# Protocol description: SPR (BIAcore T200), 1:1 binding fit
Dear colleague, please return just the value in nM, with no unit written.

[ask] Using the record for GPDCAYH(Xaa1)…-NH2 (SEQ ID NO:2, wherein Xaa1 is lysine), N-terminus blocked with biotinylated PEG4, intramolecular S-S bond (peptide) , state its measured Kd.
[reply] 156

[ask] Using the record for GPDCAYH(Xaa1)…-NH2 (SEQ ID NO:2, wherein Xaa1 is acetylated lysine), N-terminus blocked with biotinylated PEG4, intramolecular S-S bond (peptide) , state its measured Kd.
[reply] 2700
